Each record here notes measured EC50.
Target: S1P1/EDG1 (Homo sapiens)
Experiment: S1P1 CRE-bla CHOK1 reporter assay, inhibition of Forskolin induced cAMP
Type: cell-based
Conditions: agonist activity range, S1P1 CRE-bla CHOK1, 2 μM Forskolin; read-out: S1P1 ACTIVITY

[
  {
    "compound": "CC(C)Oc1ccc(-c2nc(-c3cccc4c3CCC4NCCS(C)(=O)=O)no2)cc1C#N (racemic)",
    "EC50": "0.05 to 0.5 nM"
  },
  {
    "compound": "CC(C)Oc1ccc(-c2nc(-c3cccc4c3CC[C@@H]4NS(=O)(=O)CC(=O)N3CCC3)no2)cc1C#N",
    "EC50": "< 0.05 nM"
  },
  {
    "compound": "CC(C)Oc1ccc(-c2nc(-c3cccc4c3CC[C@H]4NC(C)C(=O)N(C)C)no2)cc1C#N (mixture of isomers)",
    "EC50": "0.5 to 5 nM"
  }
]

Field: next compound
Task: # return recorded EC50 for input CC(C)Oc1ccc(-c2nc(-c3cccc4c3CC[C@@H]4NC(=O)N3CC[C@H](N(C)C)C3)no2)cc1C#N
Output: 0.5 to 5 nM

* * *

Each entry below lists one item and its recorded TI 14 days value.
Assay: Evaluation of therapeutic index in rats: 5 or 14 day toxicology study, lung to body weight ratio
Type: in vivo, Sprague-Dawley rat
Conditions: therapeutic index: dose producing 10% lung weight increase / dose producing 50% T-cell depletion; 14 day toxicology study in rats
Procedure: All studies were conducted in non-fasted male and female Sprague-Dawely rats (Simonsen Laboratories). Rats were housed in an AAALAC accredited facility and the research was approved by the facilities Institutional Animal Care and Use Committee (IACUC). […] The dose producing a 10% increase in lung to body weight ratio was interpolated from a plot of dose versus lung to body weight. The lymphopenia response was measured 24 hours following the final dose of a 3-5 day multiple dose regimen.
Counter-ions that a name gives are not always drawn.
Would you mind answering with just the numeric figure?

As a guide, the following entries are already answered.
[
  {
    "compound": "CC(C)Oc1ccc(-c2nc(-c3cccc4c3CC[C@@H]4NCCO)no2)cc1C#N",
    "TI 14 days": 18
  },
  {
    "compound": "CC(C)Oc1ccc(-c2nc(-c3cccc4c3CC[C@H]4NCCO)no2)cc1C#N",
    "TI 14 days": 14
  },
  {
    "compound": "COCCS(=O)(=O)N[C@@H]1CCc2c(-c3noc(-c4ccc(OC(C)C)c(C#N)c4)n3)cccc21",
    "TI 14 days": 30
  },
  {
    "compound": "CC(C)Oc1ccc(-c2nc(-c3cccc4c3CC[C@@H]4N)no2)cc1C#N",
    "TI 14 days": 20
  },
  {
    "compound": "CC(C)Oc1ccc(-c2nc(-c3cccc4c3CC[C@@H]4NCC(=O)N(C)C)no2)cc1C#N",
    "TI 14 days": 1
  },
  {
    "compound": "CC(C)Oc1ccc(-c2nc(-c3cccc4c3CC[C@H]4N)no2)cc1C#N [Compound 49, hydrochloride]",
    "TI 14 days": 2
  }
]

Moving on to the next compound.
Task: State its TI 14 days for this compound: CC(C)Oc1ccc(-c2nc(-c3cccc4c3CC[C@H]4NCC(=O)N(C)C)no2)cc1C#N [Compound 90, hydrochloride]
Output: 14

* * *

Target: S1P3 (Homo sapiens, UniProt Q99500)
Sequence (Q99500 whole entry): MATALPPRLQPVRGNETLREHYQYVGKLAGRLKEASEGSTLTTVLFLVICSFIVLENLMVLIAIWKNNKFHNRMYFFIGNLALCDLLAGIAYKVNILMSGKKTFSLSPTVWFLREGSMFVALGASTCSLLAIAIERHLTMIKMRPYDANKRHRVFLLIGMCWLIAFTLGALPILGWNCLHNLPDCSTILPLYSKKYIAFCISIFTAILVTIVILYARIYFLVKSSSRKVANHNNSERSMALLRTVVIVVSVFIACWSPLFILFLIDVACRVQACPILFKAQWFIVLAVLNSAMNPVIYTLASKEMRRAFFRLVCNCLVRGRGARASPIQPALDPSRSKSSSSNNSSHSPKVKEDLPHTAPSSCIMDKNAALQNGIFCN
Assay: Specificity over other S1P receptors: S1P3-Gα15 NFAT-bla HEK293T reporter assay
Settings: without Forskolin, read-out: S1P3 agonist value (EC50)
Where a name gives a salt, the structure may show the parent alone.
# maps each entry to its pEC50
Friendly reminder that pEC50 comes from taking -log10 of the concentration in mol/L.

[
  {
    "molecule": "CCOc1ccc(-c2nc(-c3cccc4c3CCC4O)no2)cc1OCC (racemic) [Compound 254, reference compound]",
    "value-reported": 5.28
  },
  {
    "molecule": "CC(C)Oc1ccc(-c2nc(-c3cccc4c3CC[C@@H]4NCCO)no2)cc1C#N",
    "value-reported": 5.00
  },
  {
    "molecule": "CC(C)Oc1ccc(-c2nc(-c3cccc4c3CC[C@H]4N)no2)cc1C#N [Compound 49, hydrochloride]",
    "value-reported": 5.05
  },
  {
    "molecule": "CC(C)Oc1ccc(-c2nc(-c3cccc4c3CC[C@H]4NCC(=O)N(C)C)no2)cc1C#N [Compound 90, hydrochloride]",
    "value-reported": 5.05
  }
]

Task: Lab note: record pEC50 of CC(C)Oc1ccc(-c2nc(-c3cccc4c3CC[C@@H]4N)no2)cc1C#N tested on S1P3 (Homo sapiens, UniProt Q99500).
Output: 5.05

Task: Quote S1P3 (Homo sapiens, UniProt Q99500) pEC50 for entry CCOc1ccc(-c2nc(-c3cccc4c3CCC4NCCO)no2)cc1OCC (racemic) [Compound 253, reference compound] .
Output: 5.37

Task: Provide the reported pEC50 (system: S1P3 (Homo sapiens, UniProt Q99500)) for CC(C)Oc1ccc(-c2nc(-c3cccc4c3CC[C@H]4NCCO)no2)cc1C#N
Output: 5.35

* * *

Molecular target: S1P1/EDG1 (Homo sapiens, UniProt P21453)
Sequence (P21453 whole entry): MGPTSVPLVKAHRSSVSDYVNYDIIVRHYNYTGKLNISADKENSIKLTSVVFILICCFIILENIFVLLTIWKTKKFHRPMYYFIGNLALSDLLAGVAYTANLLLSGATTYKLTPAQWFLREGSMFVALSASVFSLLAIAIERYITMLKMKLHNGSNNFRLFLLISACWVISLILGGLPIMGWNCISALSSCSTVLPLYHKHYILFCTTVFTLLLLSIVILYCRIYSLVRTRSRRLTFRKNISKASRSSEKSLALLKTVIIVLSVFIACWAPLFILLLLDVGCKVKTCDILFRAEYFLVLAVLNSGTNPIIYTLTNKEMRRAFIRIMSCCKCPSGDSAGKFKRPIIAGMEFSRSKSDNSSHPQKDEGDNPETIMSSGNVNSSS
Test: S1P1 CRE-bla CHOK1 reporter assay, inhibition of Forskolin induced cAMP
Format: cell-based
Details: agonist activity range, S1P1 CRE-bla CHOK1, 2 μM Forskolin; read-out: S1P1 ACTIVITY
pEC50: −log10 of the molar value.
parameter: pEC50

Worked cases, pEC50 given:
[
  {
    "compound": "CCOC(=O)N[C@H]1CCc2c(-c3noc(-c4ccc(OC(C)C)c(C#N)c4)n3)cccc21",
    "pEC50": "8.30 to 9.30"
  },
  {
    "compound": "COC(=O)N[C@H]1CCc2c(-c3noc(-c4ccc(OC(C)C)c(C#N)c4)n3)cccc21",
    "pEC50": "9.30 to 10.30"
  },
  {
    "compound": "CC(C)Oc1ccc(-c2nc(-c3cccc4c3CC[C@H]4NCC(=O)N3CCCCC3)no2)cc1C#N",
    "pEC50": "8.30 to 9.30"
  },
  {
    "compound": "CC(C)Oc1ccc(-c2nc(-c3cccc4c3CC[C@H]4NCC(F)F)no2)cc1C#N",
    "pEC50": "8.30 to 9.30"
  }
]

We now examine a further compound.
Task: Give pEC50 only, for CC(C)Oc1ccc(-c2nc(-c3cccc4c3CCC4NC(CO)CO)no2)cc1C#N (racemic) , using S1P1/EDG1 (Homo sapiens, UniProt P21453) data.
Output: 9.30 to 10.30

* * *

Target: S1P1/EDG1 (Homo sapiens)
Assay: S1P1 CRE-bla CHOK1 reporter assay, inhibition of Forskolin induced cAMP
Assay type: cell-based
Conditions: agonist activity range, S1P1 CRE-bla CHOK1, 2 μM Forskolin; read-out: S1P1 ACTIVITY
parameter: EC50

Consider the following illustrative entries.
[
  {
    "smiles-repr": "CC(C)Oc1ccc(-c2nc(-c3cccc4c3CC[C@H]4N3CC(O)C3)no2)cc1C#N",
    "value-reported": "0.05 to 0.5 nM"
  },
  {
    "smiles-repr": "CC(C)Oc1ccc(-c2nc(-c3cccc4c3CC[C@H]4NC(=O)N3CCC[C@@H](O)C3)no2)cc1C#N",
    "value-reported": "0.5 to 5 nM"
  },
  {
    "smiles-repr": "CC(C)Oc1ccc(-c2nc(-c3cccc4c3CC[C@@H]4NS(=O)(=O)CCO)no2)cc1C#N",
    "value-reported": "0.05 to 0.5 nM"
  }
]

With those in mind, consider the next molecule.
Task: Indicate its recorded EC50; the molecule in question is CC(C)Oc1ccc(-c2nc(-c3cccc4c3CC[C@@H]4N3CC(C(=O)N(C)C)C3)no2)cc1C#N
Output: 0.05 to 0.5 nM

* * *

Molecular target: S1P1/EDG1 (Homo sapiens)
Assay: S1P1 CRE-bla CHOK1 reporter assay, inhibition of Forskolin induced cAMP
Assay type: cell-based
Settings: agonist activity range, S1P1 CRE-bla CHOK1, 2 μM Forskolin; read-out: S1P1 ACTIVITY
Quick list: EC50 per entry.

The cases that follow already have their EC50 on record.
[
  {
    "compound": "CC(C)Oc1ccc(-c2nc(-c3cccc4c3CC[C@H]4NS(=O)(=O)CC(=O)N3CC(O)C3)no2)cc1C#N",
    "value-reported": "< 0.05 nM"
  },
  {
    "compound": "CC(C)Oc1ccc(-c2nc(-c3cccc4c3CC[C@H]4NCCO)no2)cc1Br",
    "value-reported": "0.5 to 5 nM"
  },
  {
    "compound": "CC(C)Oc1ccc(-c2nc(-c3cccc4c3CC[C@H]4NCCF)no2)cc1C#N",
    "value-reported": "0.05 to 0.5 nM"
  }
]

Task: Fill: EC50 (S1P1/EDG1 (Homo sapiens)) for this compound COC(=O)C(C)(C)CS(=O)(=O)N[C@H]1CCc2c(-c3noc(-c4ccc(OC(C)C)c(C#N)c4)n3)cccc21
Output: 0.5 to 5 nM

Task: Lab note: record EC50 of CC(C)Oc1ccc(-c2nc(-c3cccc4c3CC[C@@H]4NC(=O)N3CC[C@@H](N)C3)no2)cc1C#N tested on S1P1/EDG1 (Homo sapiens).
Output: 0.5 to 5 nM

Task: Lab note: S1P1/EDG1 (Homo sapiens) assay, enter EC50 for CC(C)Oc1ccc(-c2nc(-c3cccc4c3CC[C@@H]4N(C)CC(=O)O)no2)cc1C#N here
Output: 0.05 to 0.5 nM

Task: Quote S1P1/EDG1 (Homo sapiens) EC50 for entry CC(C)Oc1ccc(-c2nc(-c3cccc4c3CC[C@@H]4NC(=O)N3CC[C@@H](N(C)C)C3)no2)cc1C#N .
Output: 0.5 to 5 nM

Task: Give the observed EC50 of COC(=O)CCCN[C@H]1CCc2c(-c3noc(-c4ccc(OC(C)C)c(C#N)c4)n3)cccc21 for S1P1/EDG1 (Homo sapiens).
Output: < 0.05 nM

Task: Return reported EC50 for target or system S1P1/EDG1 (Homo sapiens), item CC(C)Oc1ccc(-c2nc(-c3cccc4c3CCC4N3CC(C(=O)O)C3)no2)cc1C#N (racemic) .
Output: < 0.05 nM

Task: State the measured EC50 (S1P1/EDG1 (Homo sapiens)) of CC(C)Oc1ccc(-c2nc(-c3cccc4c3CC[C@@H]4NS(=O)(=O)CCN3CC[C@@H](O)C3)no2)cc1C#N
Output: 0.5 to 5 nM

Task: Give EC50 for CNCCS(=O)(=O)N[C@H]1CCc2c(-c3noc(-c4ccc(OC(C)C)c(C#N)c4)n3)cccc21 tested on S1P1/EDG1 (Homo sapiens).
Output: 0.05 to 0.5 nM

Task: Give EC50; test system S1P1/EDG1 (Homo sapiens); compound CC(C)Oc1ccc(-c2nc(-c3cccc4c3CC[C@H]4N[C@@H](C)CO)no2)cc1C#N
Output: 0.05 to 0.5 nM
